- Test target: Amine oxidase [flavin-containing] A (Homo sapiens, UniProt P21397); note: assay procedure not described here
- Sequence (P21397 whole entry): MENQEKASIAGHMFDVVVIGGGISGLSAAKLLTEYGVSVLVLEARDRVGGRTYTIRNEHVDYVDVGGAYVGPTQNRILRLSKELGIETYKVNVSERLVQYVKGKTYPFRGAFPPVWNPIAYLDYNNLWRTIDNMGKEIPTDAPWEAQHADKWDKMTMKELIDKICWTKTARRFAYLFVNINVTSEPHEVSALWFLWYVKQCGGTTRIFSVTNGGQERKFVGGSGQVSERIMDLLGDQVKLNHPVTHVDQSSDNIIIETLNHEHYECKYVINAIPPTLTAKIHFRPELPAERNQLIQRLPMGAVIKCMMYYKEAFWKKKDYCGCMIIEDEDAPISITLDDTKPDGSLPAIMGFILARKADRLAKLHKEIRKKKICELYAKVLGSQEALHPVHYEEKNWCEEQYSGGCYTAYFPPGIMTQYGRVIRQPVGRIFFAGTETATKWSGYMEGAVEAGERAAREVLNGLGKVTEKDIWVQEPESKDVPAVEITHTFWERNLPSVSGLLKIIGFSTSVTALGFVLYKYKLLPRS
- Type: functional
Hi there, I'd appreciate the recorded AC50 for every entry that follows.

Ask: Sample C#C[C@]1(O)CC[C@H]2[C@@H]3CCc4cc(OC5CCCC5)ccc4[C@H]3CC[C@@]21C — what was its AC50?
Result: > 10 µM

Ask: One more compound: CCN(CC)C(=O)N[C@H]1C[C@@H]2c3cccc4[nH]cc(c34)C[C@H]2N(C)C1 [TERGURIDE]
Result: > 30 µM

Ask: One more compound: O=C(O)CCCCCCCC(=O)O
Result: > 10 µM

Ask: One more compound: COc1ccccc1OCCNCC(O)c1ccc(C)c(S(N)(=O)=O)c1 (stereo unspecified)
Result: > 30 µM

Ask: One more compound: CCCc1nc(C(C)(C)O)c(C(=O)OCc2oc(=O)oc2C)n1Cc1ccc(-c2ccccc2-c2nnn[nH]2)cc1
Result: > 10 µM

Ask: One more compound: CC(Oc1c(Cl)cccc1Cl)C1=NCCN1 (stereo unspecified)
Result: > 30 µM

Ask: One more compound: Cc1c(C(=O)NN2CCCCC2)nn(-c2ccc(Cl)cc2Cl)c1-c1ccc(Cl)cc1
Result: > 30 µM

Ask: One more compound: C[C@@H](O)[C@H]1C(=O)N2C(C(=O)O)=C(S[C@@H]3CN[C@H](C(=O)N(C)C)C3)[C@H](C)[C@H]12
Result: > 300 µM

Ask: One more compound: CN1C(=O)CCS(=O)(=O)C1c1ccc(Cl)cc1 (stereo unspecified)
Result: > 30 µM

Ask: One more compound: O=C(O)CCCCCCNC1c2ccccc2CCc2ccccc21
Result: > 30 µM

Ask: One more compound: CCC(C(=O)O)c1ccc(N2Cc3ccccc3C2=O)cc1 (stereo unspecified)
Result: > 30 µM

---

- Test target: UniProtKB P08913
- Sequence (P08913 whole entry): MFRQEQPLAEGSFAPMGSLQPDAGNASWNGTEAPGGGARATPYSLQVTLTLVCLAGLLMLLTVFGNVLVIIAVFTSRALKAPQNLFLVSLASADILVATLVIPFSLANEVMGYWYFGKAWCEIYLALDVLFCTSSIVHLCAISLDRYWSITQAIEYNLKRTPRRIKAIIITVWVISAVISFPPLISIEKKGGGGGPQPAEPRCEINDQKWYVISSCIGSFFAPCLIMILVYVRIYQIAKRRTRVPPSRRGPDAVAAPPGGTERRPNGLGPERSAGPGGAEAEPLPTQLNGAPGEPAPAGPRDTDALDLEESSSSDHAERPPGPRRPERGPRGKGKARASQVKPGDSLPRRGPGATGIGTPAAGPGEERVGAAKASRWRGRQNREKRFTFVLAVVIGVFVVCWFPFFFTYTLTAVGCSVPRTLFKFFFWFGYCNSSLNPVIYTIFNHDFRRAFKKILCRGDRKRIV
- Assay type: functional, cell-based
Hi there, I'd appreciate the recorded AC50 for every entry that follows.

Ask: Sample Cc1ccc(-n2nccn2)c(C(=O)N2CCN(c3nc4cc(Cl)ccc4o3)CC[C@H]2C)c1 [SUVOREXANT] — what was its AC50?
Result: > 30 µM

Ask: One more compound: CCOC(=O)OC(C)OC1=C(C(=O)Nc2ccccn2)N(C)S(=O)(=O)c2ccccc21 (stereo not drawn) [AMPIROXICAM]
Result: > 30 µM

Ask: One more compound: Cc1nc([N+](=O)[O-])cn1-c1ccc([N+](=O)[O-])cc1 [NITREFAZOLE]
Result: > 30 µM

Ask: One more compound: NCC[C@H](O)C(=O)N[C@@H]1C[C@H](N)[C@@H](O[C@H]2O[C@H](CN)[C@@H](O)[C@H](O)[C@H]2O)[C@H](O)[C@H]1O[C@H]1O[C@H](CO)[C@@H](O)[C@H](N)[C@H]1O [AMIKACIN]
Result: > 10 µM

Ask: One more compound: O=C(O[C@H]1C[C@H]2CC[C@@H](C1)[N+]21CCCC1)C(O)(c1ccccc1)c1ccccc1 [TROSPIUM]
Result: > 30 µM

Ask: One more compound: C=CCC1(CC(C)C)C(=O)NC(=O)NC1=O [BUTALBITAL]
Result: > 10 µM

Ask: One more compound: Cn1nnc2c(C(N)=O)ncn2c1=O [TEMOZOLOMIDE]
Result: > 30 µM

Ask: One more compound: C[C@@H](O)[C@H]1C(=O)N2C(C(=O)O)=C(S[C@@H]3CN[C@H](C(=O)N(C)C)C3)[C@H](C)[C@H]12 [MEROPENEM]
Result: > 300 µM
